METHOD: Plasma stability / fragment profiling Method #2 (MALDI-TOF, 95% plasma), human plasma
Format: in vitro ADME
MEASUREMENT CONDITIONS: Table 3b; peptide fragments observed after incubation in human plasma
Numbered stars: 1 amine (or outer) side, 2 acyl side, 3 side chain; on linkers, the order of the positions; unused ones are H or OH. Bridge positions count the residues as written; N and C are the ends. Square brackets hold non-standard residues; d marks the D form. Peptide text beside a SMILES is read from it. TBMB = c1c(C[*:1])cc(C[*:3])cc1C[*:2]
PARAMETER MEASURED: Fragments (human plasma)

Take a look at these entries with their results.
CC(=O)N[C@H]1CSCc2cc3cc(c2)CSC[C@H](NC(=O)[C@H](CCCNC(=N)N)NC(=O)[C@H](Cc2ccc(O)cc2)NC(=O)[C@@H]2CCCN2C(=O)[C@H](Cc2ccccc2)NC(=O)[C@H](CO)NC1=O)C(=O)N[C@@H](CC(C)C)C(=O)N[C@@H](Cc1c[nH]cn1)C(=O)N[C@@H](CCC(N)=O)C(=O)N[C@H](CC(=O)O)C(=O)N[C@@H](CC(C)C)C(=O)N[C@H](C(N)=O)CSC3 [Ac-(06-34-18) Phe2 Tyr4 D-Asp9] (Ac-CSFPYRCLHQ[dD]LC-NH2; linker 1-7-13 via TBMB)    -R, -FPYR
CC(=O)N[C@H]1CSCc2cc3cc(c2)CSC[C@H](NC(=O)[C@H](CCCNC(=N)N)NC(=O)[C@H](Cc2ccc(O)cc2)NC(=O)[C@@H]2CCCN2C(=O)[C@H](Cc2ccccc2)NC(=O)[C@H](CO)NC1=O)C(=O)N[C@H](CC(C)C)C(=O)N[C@@H](Cc1c[nH]cn1)C(=O)N[C@@H](CCC(N)=O)C(=O)N[C@@H](CC(=O)O)C(=O)N[C@@H](CC(C)C)C(=O)N[C@H](C(N)=O)CSC3 [Ac-(06-34-18) Phe2 Tyr4 D-Leu6] (Ac-CSFPYRC[dL]HQDLC-NH2; linker 1-7-13 via TBMB)    -R, -FPYR
CC(=O)N[C@H]1CSCc2cc3cc(c2)CSC[C@H](NC(=O)[C@H](CCCNC(=N)N)NC(=O)[C@H](Cc2ccc(O)cc2)NC(=O)[C@@H]2CCCN2C(=O)[C@H](Cc2ccccc2)NC(=O)[C@H](CO)NC1=O)C(=O)N[C@@H](CC(C)C)C(=O)N[C@@H](Cc1c[nH]cn1)C(=O)N[C@@H](CCC(N)=O)C(=O)N[C@@H](CC(=O)O)C(=O)N[C@H](CC(C)C)C(=O)N[C@H](C(N)=O)CSC3 [Ac-(06-34-18) Phe2 Tyr4 D-Leu10] (Ac-CSFPYRCLHQD[dL]C-NH2; linker 1-7-13 via TBMB)    -R, -FPYR
CC(=O)N[C@H]1CSCc2cc3cc(c2)CSC[C@H](NC(=O)[C@H](CCCNC(=N)N)NC(=O)[C@H](Cc2ccc(O)cc2)NC(=O)[C@@H]2CCCN2C(=O)[C@H](Cc2ccccc2)NC(=O)[C@H](CO)NC1=O)C(=O)N[C@@H](CC(C)C)C(=O)N[C@@H](Cc1c[nH]cn1)C(=O)N[C@H](CCC(N)=O)C(=O)N[C@@H](CC(=O)O)C(=O)N[C@@H](CC(C)C)C(=O)N[C@H](C(N)=O)CSC3 [Ac-(06-34-18) Phe2 Tyr4 D-Gln8] (Ac-CSFPYRCLH[dQ]DLC-NH2; linker 1-7-13 via TBMB)    -R, -FPYR

// next entry
Any idea what its Fragments (human plasma) is? The compound is CC(=O)N[C@H]1CSCc2cc3cc(c2)CSC[C@H](NC(=O)[C@H](CCCNC(=N)N)NC(=O)[C@H](Cc2ccc(O)cc2)NC(=O)[C@@H]2CCCN2C(=O)[C@H](Cc2ccccc2)NC(=O)[C@H](CO)NC1=O)C(=O)N[C@@H](CC(C)C)C(=O)N[C@H](Cc1c[nH]cn1)C(=O)N[C@@H](CCC(N)=O)C(=O)N[C@@H](CC(=O)O)C(=O)N[C@@H](CC(C)C)C(=O)N[C@H](C(N)=O)CSC3 [Ac-(06-34-18) Phe2 Tyr4 D-His7] (Ac-CSFPYRCL[dH]QDLC-NH2; linker 1-7-13 via TBMB)
-R, -FPYR

###

TARGET OF ASSAY: human plasma Kallikrein (Homo sapiens, UniProt P03952)
Construct: purchased Stratech, UK
Sequence (P03952 20-638): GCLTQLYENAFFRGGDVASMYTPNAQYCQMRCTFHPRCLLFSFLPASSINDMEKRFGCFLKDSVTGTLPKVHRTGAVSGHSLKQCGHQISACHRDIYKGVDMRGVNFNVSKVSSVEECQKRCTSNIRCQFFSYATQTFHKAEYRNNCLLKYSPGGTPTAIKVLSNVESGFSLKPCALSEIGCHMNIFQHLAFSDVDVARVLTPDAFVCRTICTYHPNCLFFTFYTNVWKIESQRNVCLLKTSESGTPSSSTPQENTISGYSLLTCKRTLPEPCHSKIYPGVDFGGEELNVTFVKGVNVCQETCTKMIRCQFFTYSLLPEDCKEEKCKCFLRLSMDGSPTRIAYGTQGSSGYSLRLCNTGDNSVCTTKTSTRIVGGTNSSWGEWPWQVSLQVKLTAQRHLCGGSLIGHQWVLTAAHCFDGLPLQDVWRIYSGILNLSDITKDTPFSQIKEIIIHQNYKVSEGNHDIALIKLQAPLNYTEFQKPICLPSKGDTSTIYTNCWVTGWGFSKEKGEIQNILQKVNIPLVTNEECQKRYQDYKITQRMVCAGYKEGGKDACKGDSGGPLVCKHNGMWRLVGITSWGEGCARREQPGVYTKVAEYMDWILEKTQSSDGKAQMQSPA
METHOD: Functional enzyme inhibition assay with fluorogenic substrate Z-PheArg-AMC, human plasma Kallikrein
Format: biochemical
MEASUREMENT CONDITIONS: Table 3b, D-amino acid scan in Loop2; read-out: Ki
Numbered stars: 1 amine (or outer) side, 2 acyl side, 3 side chain; on linkers, the order of the positions; unused ones are H or OH. Bridge positions count the residues as written; N and C are the ends. Square brackets hold non-standard residues; d marks the D form. Peptide text beside a SMILES is read from it. TBMB = c1c(C[*:1])cc(C[*:3])cc1C[*:2]
PARAMETER MEASURED: pKi
To interpret pKi, take it as minus log10 of a concentration measured in moles per litre.

Which pKi is reported for this compound? CC(=O)N[C@H]1CSCc2cc3cc(c2)CSC[C@H](NC(=O)[C@H](CCCNC(=N)N)NC(=O)[C@H](Cc2ccc(O)cc2)NC(=O)[C@@H]2CCCN2C(=O)[C@H](Cc2ccccc2)NC(=O)[C@H](CO)NC1=O)C(=O)N[C@@H](CC(C)C)C(=O)N[C@H](Cc1c[nH]cn1)C(=O)N[C@@H](CCC(N)=O)C(=O)N[C@@H](CC(=O)O)C(=O)N[C@@H](CC(C)C)C(=O)N[C@H](C(N)=O)CSC3 [Ac-(06-34-18) Phe2 Tyr4 D-His7] (Ac-CSFPYRCL[dH]QDLC-NH2; linker 1-7-13 via TBMB)
6.89

###

TARGET OF ASSAY: human plasma Kallikrein (Homo sapiens)
Construct: purchased Stratech, UK
METHOD: Functional enzyme inhibition assay with fluorogenic substrate Z-PheArg-AMC, human plasma Kallikrein
Format: biochemical
MEASUREMENT CONDITIONS: Table 24c, residue 8 modifications; read-out: Ki
Numbered stars: 1 amine (or outer) side, 2 acyl side, 3 side chain; on linkers, the order of the positions; unused ones are H or OH. Bridge positions count the residues as written; N and C are the ends. Peptide text beside a SMILES is read from it. TBMB = c1c(C[*:1])cc(C[*:3])cc1C[*:2]
PARAMETER MEASURED: pKi
Lab note: report pKi as minus log10 of the concentration in molar units, number only.

# query: pKi of entry CC(=O)N[C@H]1CSCc2cc3cc(c2)CSC[C@H](NC(=O)[C@H](CCCNC(=N)N)NC(=O)[C@H](Cc2ccc(O)cc2)NC(=O)[C@@H]2CCCN2C(=O)[C@H](Cc2ccccc2)NC(=O)[C@H](CO)NC1=O)C(=O)N[C@@H](CC(C)C)C(=O)N[C@@H](Cc1c[nH]cn1)C(=O)N[C@@H]([C@@H](C)O)C(=O)N[C@@H](CC(=O)O)C(=O)N[C@@H](CC(C)C)C(=O)N[C@H](C(N)=O)CSC3 [Ac-(06-34-18) Phe2 Tyr4 Thr8] (Ac-CSFPYRCLHTDLC-NH2; linker 1-7-13 via TBMB)
8.37

###

TARGET OF ASSAY: human plasma Kallikrein (Homo sapiens)
Construct: purchased Stratech, UK
METHOD: Functional enzyme inhibition assay with fluorogenic substrate Z-PheArg-AMC, human plasma Kallikrein
Type: biochemical
MEASUREMENT CONDITIONS: Table 24b; ratio of Ki to wild type
Numbered stars: 1 amine (or outer) side, 2 acyl side, 3 side chain; on linkers, the order of the positions; unused ones are H or OH. Bridge positions count the residues as written; N and C are the ends. Square brackets hold non-standard residues; d marks the D form. Peptide text beside a SMILES is read from it. Ala(4-thiazolyl) = N[C@@H](Cc1cscn1)C(=O)O; His(τ-Me) = Cn1cnc(C[C@H](N)C(=O)O)c1; TBMB = c1c(C[*:1])cc(C[*:3])cc1C[*:2]; 4Pal = N[C@@H](Cc1ccncc1)C(=O)O; 2Thi = N[C@@H](Cc1cccs1)C(=O)O
PARAMETER MEASURED: F (Kivar/KiWT)
Lab note: record just the number, no unit beside it.

Sample records with F (Kivar/KiWT):
CC(=O)N[C@H]1CSCc2cc3cc(c2)CSC[C@H](NC(=O)[C@H](CCCNC(=N)N)NC(=O)[C@H](Cc2ccc(O)cc2)NC(=O)[C@@H]2CCCN2C(=O)[C@H](Cc2ccccc2)NC(=O)[C@H](CO)NC1=O)C(=O)N[C@@H](CC(C)C)C(=O)N[C@@H](Cc1cn(C)cn1)C(=O)N[C@@H](CCC(N)=O)C(=O)N[C@@H](CC(=O)O)C(=O)N[C@@H](CC(C)C)C(=O)N[C@H](C(N)=O)CSC3 [Ac-(06-34-18) Phe2 Tyr4 His1Me7] (Ac-CSFPYRCL[His(τ-Me)]QDLC-NH2; linker 1-7-13 via TBMB)    23
CC(=O)N[C@H]1CSCc2cc3cc(c2)CSC[C@H](NC(=O)[C@H](CCCNC(=N)N)NC(=O)[C@H](Cc2ccc(O)cc2)NC(=O)[C@@H]2CCCN2C(=O)[C@H](Cc2ccccc2)NC(=O)[C@H](CO)NC1=O)C(=O)N[C@@H](CC(C)C)C(=O)N[C@@H](Cc1ccncc1)C(=O)N[C@@H](CCC(N)=O)C(=O)N[C@@H](CC(=O)O)C(=O)N[C@@H](CC(C)C)C(=O)N[C@H](C(N)=O)CSC3 [Ac-(06-34-18) Phe2 Tyr4 4Pal7] (Ac-CSFPYRCL[4Pal]QDLC-NH2; linker 1-7-13 via TBMB)    187
CC(=O)N[C@H]1CSCc2cc3cc(c2)CSC[C@H](NC(=O)[C@H](CCCNC(=N)N)NC(=O)[C@H](Cc2ccc(O)cc2)NC(=O)[C@@H]2CCCN2C(=O)[C@H](Cc2ccccc2)NC(=O)[C@H](CO)NC1=O)C(=O)N[C@@H](CC(C)C)C(=O)N[C@@H](Cc1cscn1)C(=O)N[C@@H](CCC(N)=O)C(=O)N[C@@H](CC(=O)O)C(=O)N[C@@H](CC(C)C)C(=O)N[C@H](C(N)=O)CSC3 [Ac-(06-34-18) Phe2 Tyr4 4ThiAz7] (Ac-CSFPYRCL[Ala(4-thiazolyl)]QDLC-NH2; linker 1-7-13 via TBMB)    33

F (Kivar/KiWT) for CC(=O)N[C@H]1CSCc2cc3cc(c2)CSC[C@H](NC(=O)[C@H](CCCNC(=N)N)NC(=O)[C@H](Cc2ccc(O)cc2)NC(=O)[C@@H]2CCCN2C(=O)[C@H](Cc2ccccc2)NC(=O)[C@H](CO)NC1=O)C(=O)N[C@@H](CC(C)C)C(=O)N[C@@H](Cc1cccs1)C(=O)N[C@@H](CCC(N)=O)C(=O)N[C@@H](CC(=O)O)C(=O)N[C@@H](CC(C)C)C(=O)N[C@H](C(N)=O)CSC3 [Ac-(06-34-18) Phe2 Tyr4 Thi7] (Ac-CSFPYRCL[2Thi]QDLC-NH2; linker 1-7-13 via TBMB) ?
80

Values were extracted from patent US10118947B2.
